Data credit: the supplement of paper PMC10567573

B1: CDC25A (parent)
chain: KPIVPTDGKRVIVVFHCEFSSERG

variants of: B1; assay: protein stability index of a GFP-peptide fusion (GPS, HEK-293T) (PSI 1-6); higher = more stable; settings: c terminus: a fixed tail appended;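 further: lentivirally expressed fusions sorted by FACS into six bins by GFP to DsRed ratio, PSI derived from sequencing read proportions per bin multiplied by bin number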
Response key: Fulfilled means protein stability index >= 3; Not fulfilled means protein stability index < 3.

Study these solved cases before continuing.
V14E : Not fulfilled
K1D : Not fulfilled
C17P : Not fulfilled
H16A : Not fulfilled
S21V : Not fulfilled

Please indicate if the recorded protein stability index for "I12T" meets or exceeds 3.
Not fulfilled

Would you kindly repeat that for "R23W" ?
Not fulfilled

Same again, this time with "K1I"
Not fulfilled

What do you have for "P5R" ?
Not fulfilled

Would you kindly repeat that for "K1H" ?
Not fulfilled

Query "E18P" next
Not fulfilled

Next entry: "V13G"
Not fulfilled

Next entry: "T6V"
Not fulfilled

Here is the next variant: "P5D"
Not fulfilled

Also need "V11K" , thanks.
Not fulfilled

Lookup "I12D"
Fulfilled
